- PROCEDURE_DETAILS: Therapeutic index, ratio of IC50 for human MIAPaCa2 cells to IC50 for human WI38 cells
- Type: cell-based, MIA PaCa-2
- RECORDED_CONDITIONS: MIAPaCa2 cells and WI38 cells, read-out: Ratio IC50
QUANTITY_KIND: selectivity ratio

Name the recorded selectivity ratio for CCN(CC)CC(=O)Nc1cccc(-n2cc(-c3ccc4ccc(-c5cn(-c6cccc(NC(=O)CN(CC)CC)c6)nn5)cc4c3)nn2)c1 .
40

###

As shown below, each of these molecules has a reported K value.
- System: Nucleic Acid
- PROCEDURE_DETAILS: Binding affinity to HIF2alpha DNA by surface plasmon resonance assay
- Format: nucleic-acid assay
The number alone won't do; follow it with the unit.

Solved entries (count: 2):
O=C(CN1CCCCC1)Nc1cccc(-n2cc(-c3ccc4ccc(-c5cn(-c6cccc(NC(=O)CN7CCCCC7)c6)nn5)cc4c3)nn2)c1: 0.59 ×10⁷ /M
CCN(CC)CC(=O)Nc1cccc(-n2cc(-c3ccc4ccc(-c5cn(-c6cccc(NC(=O)CN(CC)CC)c6)nn5)cc4c3)nn2)c1: 0.27 ×10⁷ /M

Name the recorded K for O=C(CN1CCCC1)Nc1ccc(-n2cc(-c3ccc4ccc(-c5cn(-c6ccc(NC(=O)CN7CCCC7)cc6)nn5)cc4c3)nn2)cc1 .
0.97 ×10⁷ /M

Thanks! And CCN(CC)CC(=O)Nc1ccc(-n2cc(-c3ccc4ccc(-c5cn(-c6ccc(NC(=O)CN(CC)CC)cc6)nn5)cc4c3)nn2)cc1 ?
0.15 ×10⁷ /M

###

As shown below, each of these compounds has a reported K value.
- System: Nucleic Acid
- PROCEDURE_DETAILS: Binding affinity to HIF1alpha DNA by surface plasmon resonance assay
- Assay type: nucleic-acid assay
Please reply with the bare figure in ×10⁷ /M and do not write the unit itself.

Solved entries (count: 3):
O=C(CN1CCCCC1)Nc1cccc(-n2cc(-c3ccc4ccc(-c5cn(-c6cccc(NC(=O)CN7CCCCC7)c6)nn5)cc4c3)nn2)c1: 0.81
O=C(CN1CCCC1)Nc1ccc(-n2cc(-c3ccc4ccc(-c5cn(-c6ccc(NC(=O)CN7CCCC7)cc6)nn5)cc4c3)nn2)cc1: 1.49
CCN(CC)CC(=O)Nc1ccc(-n2cc(-c3ccc4ccc(-c5cn(-c6ccc(NC(=O)CN(CC)CC)cc6)nn5)cc4c3)nn2)cc1: 1.25

Now, please, on to the next compound.
Name the recorded K for CCN(CC)CC(=O)Nc1cccc(-n2cc(-c3ccc4ccc(-c5cn(-c6cccc(NC(=O)CN(CC)CC)c6)nn5)cc4c3)nn2)c1 .
0.29

###

- Test system: Nucleic Acid
- PROCEDURE_DETAILS: Binding affinity to 5'-GGGGCGGGCACGGGGCGGG-3' DNA by surface plasmon resonance
- Type: nucleic-acid assay
Activity calls are given as the source filed them. The rule behind the calls is not given here.
QUANTITY_KIND: K

O=C(CN1CCCCC1)Nc1cccc(-n2cc(-c3ccc4ccc(-c5cn(-c6cccc(NC(=O)CN7CCCCC7)c6)nn5)cc4c3)nn2)c1: inactive
O=C(CN1CCCC1)Nc1ccc(-n2cc(-c3ccc4ccc(-c5cn(-c6ccc(NC(=O)CN7CCCC7)cc6)nn5)cc4c3)nn2)cc1: inactive
CCN(CC)CC(=O)Nc1cccc(-n2cc(-c3ccc4ccc(-c5cn(-c6cccc(NC(=O)CN(CC)CC)c6)nn5)cc4c3)nn2)c1: < 100000 M⁻¹
CCN(CC)CC(=O)Nc1ccc(-n2cc(-c3ccc4ccc(-c5cn(-c6ccc(NC(=O)CN(CC)CC)cc6)nn5)cc4c3)nn2)cc1: inactive

###

- Test system: MCF7
- PROCEDURE_DETAILS: Antiproliferative activity against human MCF7 cells after 96 hrs by SRB assay
- Format: functional, cell-based
- RECORDED_CONDITIONS: MCF7, 96 h
As shown below, each of these molecules has a reported IC50 value.
Please reply with the bare figure in µM and do not write the unit itself.

O=C(CCN1CCCC1)Nc1ccc(-n2cc(-c3ccc4ccc(-c5cn(-c6ccc(NC(=O)CCN7CCCC7)cc6)nn5)cc4c3)nn2)cc1: 8.1

Now, please, on to the next molecule.
Name the recorded IC50 for O=C(CCN1CCCC1)Nc1cccc(-n2cc(-c3ccc4ccc(-c5cn(-c6cccc(NC(=O)CCN7CCCC7)c6)nn5)cc4c3)nn2)c1 .
30

###

- PROCEDURE_DETAILS: Therapeutic index, ratio of IC50 for human 786-O cells to IC50 for human WI38 cells
- Type: cell-based, WI-38
- RECORDED_CONDITIONS: 786-O cells and WI38 cells, read-out: Ratio IC50
QUANTITY_KIND: selectivity ratio

Name the recorded selectivity ratio for CCN(CC)CC(=O)Nc1cccc(-n2cc(-c3ccc4ccc(-c5cn(-c6cccc(NC(=O)CN(CC)CC)c6)nn5)cc4c3)nn2)c1 .
40

###

- PROCEDURE_DETAILS: Therapeutic index, ratio of IC50 for human MNNG-HOS cells to IC50 for human WI38 cells
- Format: cell-based, HOS-TE85
- RECORDED_CONDITIONS: MNNG-HOS cells and WI38 cells, read-out: Ratio IC50
QUANTITY_KIND: selectivity ratio
Give the figure by itself; no unit, no explanation.

Name the recorded selectivity ratio for CCN(CC)CC(=O)Nc1cccc(-n2cc(-c3ccc4ccc(-c5cn(-c6cccc(NC(=O)CN(CC)CC)c6)nn5)cc4c3)nn2)c1 .
40

###

- PROCEDURE_DETAILS: Antiproliferative activity against human RCC4/VHL cells after 96 hrs by SRB assay
- Assay type: functional, cell-based
QUANTITY_KIND: IC50 (µM)
Please reply with the bare figure in µM and do not write the unit itself.

Solved entries (count: 4):
O=C(CN1CCCC1)Nc1ccc(-n2cc(-c3ccc4ccc(-c5cn(-c6ccc(NC(=O)CN7CCCC7)cc6)nn5)cc4c3)nn2)cc1: 6.4
CCN(CC)CCC(=O)Nc1cccc(-n2cc(-c3ccc4ccc(-c5cn(-c6cccc(NC(=O)CCN(CC)CC)c6)nn5)cc4c3)nn2)c1: 2.7
CCN(CC)CC(=O)Nc1ccc(-n2cc(-c3ccc4ccc(-c5cn(-c6ccc(NC(=O)CN(CC)CC)cc6)nn5)cc4c3)nn2)cc1: 26
O=C(CN1CCCC1)Nc1cccc(-n2cc(-c3ccc4ccc(-c5cn(-c6cccc(NC(=O)CN7CCCC7)c6)nn5)cc4c3)nn2)c1: 2.4

Now, please, on to the next molecule.
Name the recorded IC50 for O=C(CCN1CCCC1)Nc1cccc(-n2cc(-c3ccc4ccc(-c5cn(-c6cccc(NC(=O)CCN7CCCC7)c6)nn5)cc4c3)nn2)c1 .
6.8

###

- PROCEDURE_DETAILS: Antiproliferative activity against human RCC4/VHL cells after 96 hrs by SRB assay
- Format: functional, cell-based
As shown below, each of these molecules has a reported IC50 value.
Please reply with the bare figure in µM and do not write the unit itself.

CCN(CC)CC(=O)Nc1cccc(-n2cc(-c3ccc4ccc(-c5cn(-c6cccc(NC(=O)CN(CC)CC)c6)nn5)cc4c3)nn2)c1: 2.6
CCN(CC)CCC(=O)Nc1ccc(-n2cc(-c3ccc4ccc(-c5cn(-c6ccc(NC(=O)CCN(CC)CC)cc6)nn5)cc4c3)nn2)cc1: 2.4
O=C(CCN1CCCC1)Nc1ccc(-n2cc(-c3ccc4ccc(-c5cn(-c6ccc(NC(=O)CCN7CCCC7)cc6)nn5)cc4c3)nn2)cc1: 2.6

Now, please, on to the next molecule.
Name the recorded IC50 for O=C(CN1CCCCC1)Nc1cccc(-n2cc(-c3ccc4ccc(-c5cn(-c6cccc(NC(=O)CN7CCCCC7)c6)nn5)cc4c3)nn2)c1 .
2.7

###

- PROCEDURE_DETAILS: Antiproliferative activity against human TC71 cells after 96 hrs by SRB assay
- Type: functional, cell-based
- RECORDED_CONDITIONS: TC-71, 96 h
QUANTITY_KIND: pIC50
pIC50 here is simply -log10 of the concentration when that concentration is written in mol/L.

Solved entries (count: 7):
O=C(CN1CCCCC1)Nc1cccc(-n2cc(-c3ccc4ccc(-c5cn(-c6cccc(NC(=O)CN7CCCCC7)c6)nn5)cc4c3)nn2)c1: 4.09
CCN(CC)CCC(=O)Nc1cccc(-n2cc(-c3ccc4ccc(-c5cn(-c6cccc(NC(=O)CCN(CC)CC)c6)nn5)cc4c3)nn2)c1: 4.55
CCN(CC)CCC(=O)Nc1ccc(-n2cc(-c3ccc4ccc(-c5cn(-c6ccc(NC(=O)CCN(CC)CC)cc6)nn5)cc4c3)nn2)cc1: 5.12
O=C(CCN1CCCC1)Nc1cccc(-n2cc(-c3ccc4ccc(-c5cn(-c6cccc(NC(=O)CCN7CCCC7)c6)nn5)cc4c3)nn2)c1: 5.05
CCN(CC)CC(=O)Nc1cccc(-n2cc(-c3ccc4ccc(-c5cn(-c6cccc(NC(=O)CN(CC)CC)c6)nn5)cc4c3)nn2)c1: 5.11
O=C(CN1CCCC1)Nc1ccc(-n2cc(-c3ccc4ccc(-c5cn(-c6ccc(NC(=O)CN7CCCC7)cc6)nn5)cc4c3)nn2)cc1: 4.85
O=C(CCN1CCCC1)Nc1ccc(-n2cc(-c3ccc4ccc(-c5cn(-c6ccc(NC(=O)CCN7CCCC7)cc6)nn5)cc4c3)nn2)cc1: 4.80

Now, please, on to the next molecule.
Name the recorded pIC50 for O=C(CN1CCCC1)Nc1cccc(-n2cc(-c3ccc4ccc(-c5cn(-c6cccc(NC(=O)CN7CCCC7)c6)nn5)cc4c3)nn2)c1 .
4.12
